Read-out: Macrophage colony-stimulating factor (MCSF), CSF1 (gene 1435)
Assay overview: BSK_LPS_MCSF: BioMAP Diversity Plus: LPS Assay for Macrophage colony-stimulating factor (MCSF) Biomarker Activity (AID 2283083)
Condition summary: primary human HUVEC with PBMC; actives raise or lower the signal
Description: BSK_LPS is a cell-based, multiplexed-readout assay that uses umbilical vein endothelium and peripheral blood mononuclear cells, a human vascular primary cell co-culture, with measurements taken at 24 hours after chemical dosing in a 96-well plate.BSK_LPS_MCSF is an assay component measured in the BSK_LPS assay. It measures M-CSF antibody related to regulation of gene expression using ELISA technology.Data from the assay component BSK_LPS_MCSF was analyzed into 1 assay endpoint. […]
Activity calls are given as the source filed them. How the source made its calls: active means hit-call score of the fitted dose curve at least 0.9, where 1 is the maximum; inactive means score below 0.9.
Pick one and only one: active, inactive

*Q* Recorded test outcome, item `Cc1cccc(C)c1N`
*A* inactive

*Q* Just curious, what result did `CCNc1nc(NC(C)C)nc(SC)n1` get here?
*A* inactive

*Q* Hi team, can someone confirm the assay call for `CN(C)c1nc(=O)n(C2CCCCC2)c(=O)n1C` ?
*A* inactive

*Q* Identify the outcome logged in this assay for the compound shown: `O=S(=O)(O)C(F)(F)C(F)(F)C(F)(F)C(F)(F)C(F)(F)C(F)(F)F`
*A* inactive

*Q* Can you look up the reported call for CC(C)C(=O)OCC(C)(C)C(OC(=O)C(C)C)C(C)C (stereo unspecified) for me?
*A* inactive

*Q* What classification did `Cc1cc2c3c(c1)C(c1ccccc1)=N[C@@H](NC(=O)c1ccncc1)C(=O)N3CC2` end up with in this test?
*A* active

The values you see were collected from PubChem BioAssay (EPA / NIEHS).
